The measurements presented in this section are drawn from patent US10227350B2.

biological target: PI3Kβ (Homo sapiens (Human), UniProt P42338)
Sequence (P42338 whole entry): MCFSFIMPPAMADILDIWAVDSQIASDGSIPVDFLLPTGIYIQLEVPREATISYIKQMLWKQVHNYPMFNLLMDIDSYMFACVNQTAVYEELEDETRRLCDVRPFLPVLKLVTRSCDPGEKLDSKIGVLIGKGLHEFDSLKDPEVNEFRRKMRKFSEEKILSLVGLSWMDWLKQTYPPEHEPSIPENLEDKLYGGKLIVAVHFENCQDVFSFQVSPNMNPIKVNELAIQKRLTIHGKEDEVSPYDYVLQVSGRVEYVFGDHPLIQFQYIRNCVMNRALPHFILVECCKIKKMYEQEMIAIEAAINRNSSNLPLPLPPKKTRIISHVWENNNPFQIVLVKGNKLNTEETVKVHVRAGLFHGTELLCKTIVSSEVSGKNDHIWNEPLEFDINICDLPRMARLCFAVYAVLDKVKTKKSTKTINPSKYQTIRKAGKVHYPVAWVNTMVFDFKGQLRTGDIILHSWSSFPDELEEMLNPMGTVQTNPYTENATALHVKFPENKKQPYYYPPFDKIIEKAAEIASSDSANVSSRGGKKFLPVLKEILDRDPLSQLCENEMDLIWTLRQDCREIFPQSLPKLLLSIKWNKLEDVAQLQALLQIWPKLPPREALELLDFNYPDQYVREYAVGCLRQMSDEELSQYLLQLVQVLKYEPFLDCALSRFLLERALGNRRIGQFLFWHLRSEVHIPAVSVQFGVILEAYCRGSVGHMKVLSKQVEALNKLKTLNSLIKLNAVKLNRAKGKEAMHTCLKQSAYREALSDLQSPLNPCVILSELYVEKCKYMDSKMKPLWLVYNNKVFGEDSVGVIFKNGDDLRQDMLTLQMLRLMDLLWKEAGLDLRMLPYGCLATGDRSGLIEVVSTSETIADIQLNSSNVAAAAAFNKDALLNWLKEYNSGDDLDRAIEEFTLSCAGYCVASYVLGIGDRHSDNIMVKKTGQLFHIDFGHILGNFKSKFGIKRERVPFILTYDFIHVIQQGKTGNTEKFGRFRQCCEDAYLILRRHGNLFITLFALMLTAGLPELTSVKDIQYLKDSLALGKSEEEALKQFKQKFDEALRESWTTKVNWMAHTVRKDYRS
Sequence (P27986 whole entry partner): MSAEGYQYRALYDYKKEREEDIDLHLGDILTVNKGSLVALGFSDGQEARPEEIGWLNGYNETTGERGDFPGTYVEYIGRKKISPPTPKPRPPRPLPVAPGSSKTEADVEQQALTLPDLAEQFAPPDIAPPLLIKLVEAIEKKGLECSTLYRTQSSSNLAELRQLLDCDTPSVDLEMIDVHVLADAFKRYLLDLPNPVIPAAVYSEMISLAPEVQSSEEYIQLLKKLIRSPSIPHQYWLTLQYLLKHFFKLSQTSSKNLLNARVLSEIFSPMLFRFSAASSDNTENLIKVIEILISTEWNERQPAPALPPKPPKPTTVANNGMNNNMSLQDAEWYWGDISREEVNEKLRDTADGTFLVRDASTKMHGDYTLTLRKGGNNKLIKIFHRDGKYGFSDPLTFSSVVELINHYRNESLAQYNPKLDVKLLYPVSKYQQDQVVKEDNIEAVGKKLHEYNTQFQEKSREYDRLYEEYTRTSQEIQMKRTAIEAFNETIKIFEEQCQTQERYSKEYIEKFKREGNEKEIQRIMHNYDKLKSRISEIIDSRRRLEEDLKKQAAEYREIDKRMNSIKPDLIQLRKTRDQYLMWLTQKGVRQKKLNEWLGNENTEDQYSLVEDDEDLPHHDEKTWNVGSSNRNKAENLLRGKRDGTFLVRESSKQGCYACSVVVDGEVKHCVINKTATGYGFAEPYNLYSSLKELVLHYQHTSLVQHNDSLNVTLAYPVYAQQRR
valueType: pIC50
Scale explanation: pIC50 corresponds to minus log10 of a concentration expressed in moles per litre.

Sample records with pIC50:
compound: Cc1nc2c(-c3nnc[nH]3)cc(-c3ccnc(N)c3F)cc2n1-c1ccnc2c(F)ccc(Cl)c12
pIC50: 7.54
--
compound: Cc1nnc(-c2cc(-c3ccnc(C#N)c3)cc3c2nc(C)n3-c2ccnc3c(Cl)ccc(F)c23)[nH]1
pIC50: 7.89
--
compound: Cc1nc2c(-c3nnc[nH]3)cc(-c3ccnc(C#N)c3)cc2n1-c1ccnc2c(Cl)cccc12 [Example 149]
pIC50: 8.40
--
compound: N#Cc1cc(-c2cc(-c3nnc[nH]3)c3ncn(-c4cc(-c5cn[nH]c5)nc5ccccc45)c3c2)ccn1
pIC50: 7.15
--
compound: Nc1nccc(-c2cc(-c3nnc[nH]3)c3nc(C4CC4)n(-c4ccnc5c(Cl)cccc45)c3c2)c1F
pIC50: 8.10
--
compound: Cc1nc2c(C(N)=O)cc(-c3ccncc3)cc2n1-c1ccnc2cccc(F)c12
pIC50: 7.09
--
compound: Cc1nc2c(-c3nnc[nH]3)cc(-c3ccnc(N)c3F)cc2n1-c1ccnc2c(F)cccc12
pIC50: 8.15
--
compound: Cc1nc2c(-c3nnc[nH]3)cc(-c3ccncc3)cc2n1-c1ccnc2cccc(F)c12
pIC50: 8.10
--
compound: Cc1nnc(-c2cc(-c3ccnc(N)c3)cc3c2nc(C(C)C)n3-c2ccnc3c(Cl)ccc(F)c23)[nH]1
pIC50: 6.85
--
compound: Cc1nnc(-c2cc(-c3ccnc(N)c3)cc3c2nc(C2CC2)n3-c2ccnc3c(Cl)ccc(F)c23)[nH]1
pIC50: 6.70

QUERY: Request - read-out pIC50 | tested on PI3Kβ (Homo sapiens (Human), UniProt P42338) | compound Cc1nc2c(-c3nnc[nH]3)cc(-c3ccncc3F)cc2n1-c1ccnc2c(Cl)cccc12 [Example 39]
RESULT: 8.30

QUERY: Request - read-out pIC50 | tested on PI3Kβ (Homo sapiens (Human), UniProt P42338) | compound Cc1nc2c(-c3nnc[nH]3)cc(-c3ccnc(C#N)c3)cc2n1-c1ccnc2c(F)ccc(Cl)c12 (single isomer, unassigned)
RESULT: 8.10

QUERY: Request - read-out pIC50 | tested on PI3Kβ (Homo sapiens (Human), UniProt P42338) | compound Cc1nc2c(-c3nnc[nH]3)cc(-c3cc(N)ncc3F)cc2n1-c1ccnc2c(F)ccc(F)c12
RESULT: 7.30

QUERY: Request - read-out pIC50 | tested on PI3Kβ (Homo sapiens (Human), UniProt P42338) | compound Cc1nc2c(-c3nnc[nH]3)cc(-c3ccnc(N)c3)cc2n1-c1ccnc2c(F)ccc(F)c12 (single isomer, unassigned)
RESULT: 8.05

QUERY: Request - read-out pIC50 | tested on PI3Kβ (Homo sapiens (Human), UniProt P42338) | compound CCCc1nc2c(-c3nnc(C)[nH]3)cc(-c3ccnc(N)c3)cc2n1-c1ccnc2c(Cl)ccc(F)c12
RESULT: 7.80
